The reported measurements were obtained from patent US20210395650A1.

protease activity in the course of time of storage at 37° C. values by entry
Target: Savinase® 16.0L (Lederbergia lenta)
Construct: purchased Sigma-Aldrich
Sequence (P29600 whole entry): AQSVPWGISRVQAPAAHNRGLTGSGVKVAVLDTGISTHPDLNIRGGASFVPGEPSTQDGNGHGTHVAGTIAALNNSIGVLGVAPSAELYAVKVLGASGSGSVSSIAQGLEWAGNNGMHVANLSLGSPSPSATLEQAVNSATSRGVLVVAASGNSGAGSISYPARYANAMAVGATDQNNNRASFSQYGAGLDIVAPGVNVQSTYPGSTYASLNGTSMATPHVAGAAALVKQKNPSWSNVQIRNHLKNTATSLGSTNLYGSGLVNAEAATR
Assay: Protease storage stability in liquid formulations at 37° C. (Suc-AAPF-pNA assay)
Assay type: biochemical
Settings: base formulation II, 2.5 wt% compound, 0.7 wt% Savinase 16.0 L; 21 d
Structures can show the parent of a compound that is named as a salt.
ENDPOINT_LABEL: protease activity in the course of time of storage at 37° C. (%)

INSERT INTO measurements (molecule, measured_number) VALUES
  ('O=C(CC(O)(CC(=O)OCc1ccccc1)C(=O)OCc1ccccc1)OCc1ccccc1 [A.8, Tribenzylcitrate]', 85),
  ('CCOC(=O)CC(O)(CC(=O)OCC)C(=O)OCC [A.1, Triethylcitrate]', 89),
  ('CCOC(=O)CC(O)(CC(=O)O)C(=O)O (stereo not drawn) [A.6, Monoethylcitrate]', 92),
  ('O=C(O)CC(O)(CC(=O)O)C(=O)O [B.2, citric acid trisodium salt, reference compound]', 66),
  ('CCOC(=O)CC(CC(=O)OCC)(OC(C)=O)C(=O)OCC [A.5, Acetyltriethylcitrate]', 90),
  ('CC(=O)OCC(COC(C)=O)OC(C)=O [B.4, glyceroltriacetate, reference compound]', 58);
